# Lookup of reported luciferase activation keyed by entry
Assay details: glycosylation-insensitive luciferase reporter activation – D54 LucT cells, dry powder, set 2, counter-screen for N-linked glycosylation inhibitor project, dose response (AID 1053120)
Test settings: D54 LucT luciferase reporter (no NLG), luminescence, 24 h; at 19.5 µM (top of the series)
Outcome measure: luciferase activation (%)

>>> obs_value("O=C1CCN(Cc2ccccc2)c2cc3ccccc3cc21")
0
>>> obs_value("CCCOC(=O)c1[nH]c2c(c1C)C(=O)CC(c1cccs1)C2 (stereo not given)")
50
>>> obs_value("Cc1ccc(Oc2ccc(S(=O)(=O)N3CCOCC3)cc2C(N)=O)c(-n2nc3ccccc3n2)c1")
33.3
>>> obs_value("CN(C)S(=O)(=O)c1ccc(N2CCCC2)c(C(=O)Nc2nc3ccccc3s2)c1")
0
>>> obs_value("CCn1c2ccccc2c2cc(NC(=O)c3cc(OC)c(OC)c(OC)c3)ccc21")
-33.3

* * *

Assay details: glycosylation-insensitive luciferase reporter activation – D54 LucT cells, dry powder, set 2, counter-screen for N-linked glycosylation inhibitor project, dose response (AID 1053120)
Test settings: D54 LucT luciferase reporter (no NLG), luminescence, 24 h; at 19.5 µM (top of the series)
Calls of active or inactive are those of the source. The rule behind the calls is not given here.
Outcome measure: luciferase activation

>>> obs_value("Cc1ccc(CCC(=O)Nc2ncc(Cc3cc(Cl)ccc3Cl)s2)o1")
"-33.3% (inactive)"
>>> obs_value("Cc1cnc(NC(=O)c2cc(S(=O)(=O)N3CCOCC3)ccc2N2CCCC2)s1")
"-20% (inactive)"
>>> obs_value("COc1cc(C(=O)NCCOc2cc(C)cc(C)c2)cc(OC)c1OC")
"33.3% (inactive)"
>>> obs_value("Cc1cc(NC(=O)CSc2nc(-c3ccco3)cc(C(F)(F)F)n2)no1")
"0% (inactive)"
>>> obs_value("Cc1cc(=O)[nH]c(N/N=C/c2cc(C)n(CC(F)(F)F)c2C)n1")
"0% (inactive)"
>>> obs_value("Cc1cccc(C)c1OCCNC(=O)C(=O)NCc1ccco1")
"33.3% (inactive)"
>>> obs_value("COc1ccc2sc(NC(=O)c3cc(S(=O)(=O)N(C)C)ccc3N3CCCC3)nc2c1")
"-50% (inactive)"
>>> obs_value("Cc1cnc(NC(=O)c2cc(S(=O)(=O)N3CCCC3)ccc2N2CCCC2)s1")
"-20% (inactive)"

These entries and their values trace back to PubChem BioAssay AID1053120.
